- test_target: Human BCMA (human) (UniProt Q02223)
- test_protocol: SPR, IgG on chip, huBCMA analyte
parameter: koff
Express your answer as a number followed by its unit.

Below, 2 binders whose answers are already recorded.
>>> data_value("COMBO_Rd4_6nM_C12 (antibody, V domains shown, IgG) VH: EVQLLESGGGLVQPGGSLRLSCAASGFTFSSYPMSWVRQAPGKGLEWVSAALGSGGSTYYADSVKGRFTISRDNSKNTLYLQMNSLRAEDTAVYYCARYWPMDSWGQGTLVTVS VL: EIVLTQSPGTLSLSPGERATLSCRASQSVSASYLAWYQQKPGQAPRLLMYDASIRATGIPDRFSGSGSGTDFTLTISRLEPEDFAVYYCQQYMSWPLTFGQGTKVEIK")
"0.00027 s⁻¹"
>>> data_value("COMBO_Rd4_0.6nM_C04 (antibody, V domains shown, IgG) VH: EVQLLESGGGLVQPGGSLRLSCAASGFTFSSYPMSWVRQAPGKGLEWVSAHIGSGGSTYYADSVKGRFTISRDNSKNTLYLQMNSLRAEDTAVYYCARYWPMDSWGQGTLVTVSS VL: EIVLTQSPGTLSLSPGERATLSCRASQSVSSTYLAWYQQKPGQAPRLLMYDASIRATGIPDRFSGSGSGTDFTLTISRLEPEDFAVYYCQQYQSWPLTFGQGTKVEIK")
"0.000158 s⁻¹"

We next turn to a different binder, shown below.
Query: Item COMBO_Rd4_0.6nM_C14 (antibody, V domains shown, IgG) VH: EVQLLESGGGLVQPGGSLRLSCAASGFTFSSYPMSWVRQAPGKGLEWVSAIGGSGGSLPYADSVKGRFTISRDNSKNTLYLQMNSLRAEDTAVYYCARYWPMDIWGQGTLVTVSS VL: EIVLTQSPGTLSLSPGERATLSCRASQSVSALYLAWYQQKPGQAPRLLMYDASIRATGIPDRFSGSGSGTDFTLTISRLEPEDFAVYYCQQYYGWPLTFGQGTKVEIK has what recorded koff?
Reply: 0.000328 s⁻¹
